system: HL60; experiment: Cell survival assay (MTS), HL60; type: cell-based; details: Homo sapiens, HL-60; HL60 parental; Table 5; read-out: HL60 IC50, nM (N)
measurementName: IC50 (nM)
Give just the number in nM; leave the unit off.

# example entries with known answers
- compound: "COc1cccc2c1C(=O)c1c(O)c3c(c(O)c1C2=O)C[C@@](O)(C(=O)CO)C[C@@H]3O[C@H]1C[C@H](N)[C@H](O)[C@H](C)O1"
  system: "HL60"
  IC50, nM: 24.2
- compound: "CC[C@]1(O)C[C@@H]2CN(CCc3c([nH]c4ccccc34)[C@@](C(=O)OC)(c3cc4c(cc3OC)N(C)[C@H]3[C@@](O)(C(=O)OC)[C@H](OC(C)=O)[C@]5(CC)C=CCN6CC[C@]43[C@@H]65)C2)C1"
  system: "HL60"
  IC50, nM: 0.5
- compound: "O=C1c2c(O)ccc(O)c2C(=O)c2c(NCCNCCO)ccc(NCCNCCO)c21"
  system: "HL60"
  IC50, nM: 5.9

Now consider a different compound.
[ask] Find the recorded IC50 belonging to CC(=O)O[C@H]1C(=O)[C@@]2(C)[C@H]([C@H](OC(=O)c3ccccc3)[C@]3(O)C[C@H](OC(=O)[C@H](O)[C@@H](NC(=O)c4ccccc4)c4ccccc4)C(C)=C1C3(C)C)[C@]1(OC(C)=O)CO[C@@H]1C[C@@H]2O [paclitaxel, reference compound] and report it.
[reply] 1.8
